- protocolSummary: BET inhibitor-based combinations targeting novel dependencies in MECOM-rearranged (r) AML: AML-194 cell line (AID 2202237; note: nearly all actives have a fitted effect of over 40% in size)
- conditionParameters: AML-194 (MECOM-r AML) viability, CellTiter-Glo, 48 h; series mostly up to 46 µM
Inconclusive results are not listed. Calls of active or inactive are those of the source. Calls come from the whole dose curve; as a rule, active = well fitted inhibition curve with a large enough effect; inconclusive = small, poorly fitted or top-dose-only effect; inactive = flat fitted curve, though single readings scatter.
Can you answer with just one of these options? active, inactive

# structureSmilesString, discreteLabel
data = [
    ("CC(=O)N(O)CCCCCNC(=O)CCC(=O)N(O)CCCCCNC(=O)CCC(=O)N(O)CCCCCN", "active"),
    ("CN1CCN(c2ccc(C(=O)Nc3n[nH]c4ccc(Cc5cc(F)cc(F)c5)cc34)c(NC3CCOCC3)c2)CC1", "active"),
    ("c1ccc2c(Oc3nc(Nc4ccc(N5CCOCC5)cc4)c4ncn(C5CCCCC5)c4n3)cccc2c1", "inactive"),
    ("COc1cc(Nc2nc3ccccc3nc2NS(=O)(=O)c2ccc(NC(=O)c3ccc(C)c(OC)c3)cc2)cc(OC)c1", "inactive"),
]

Asked: What is the recorded call for this compound in the test? CN1CCN(Cc2ccc(NC(=O)Nc3ccc(Oc4cc(NC(=O)C5CC5)ncn4)cc3)cc2C(F)(F)F)CC1
Given back: active

Asked: What is the recorded call for this compound in the test? COc1cc(C(=O)NS(=O)(=O)c2ccccc2C)ccc1Cc1cn(C)c2ccc(NC(=O)OC3CCCC3)cc12
Given back: inactive

Asked: What is the recorded call for this compound in the test? NC[C@H](O)c1ccc(O)c(O)c1
Given back: inactive

====

Listed here are compounds together with their documented activation.
- assayedSystem: Cellular tumor antigen p53 (Homo sapiens) (UniProt P04637)
- Sequence (P04637 whole entry, looked up): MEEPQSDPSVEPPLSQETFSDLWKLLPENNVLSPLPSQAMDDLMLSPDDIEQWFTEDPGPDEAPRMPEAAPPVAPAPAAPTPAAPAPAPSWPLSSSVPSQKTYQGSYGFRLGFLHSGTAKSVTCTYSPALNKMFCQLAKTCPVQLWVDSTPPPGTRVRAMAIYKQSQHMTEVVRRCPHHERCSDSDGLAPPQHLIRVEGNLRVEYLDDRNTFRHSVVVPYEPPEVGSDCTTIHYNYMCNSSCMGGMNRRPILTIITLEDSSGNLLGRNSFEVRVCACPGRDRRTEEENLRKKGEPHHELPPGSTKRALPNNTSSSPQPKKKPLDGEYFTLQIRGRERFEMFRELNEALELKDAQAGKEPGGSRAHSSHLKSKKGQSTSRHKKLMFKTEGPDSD
- protocolSummary: Primary qHTS for small molecule compounds that upregulate eGFP-tagged delta133p53alpha (in N-terminal) cells. (AID 2060322);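 note: cells pre-induced with doxycycline then dosed without doxycycline; 0% = DMSO vehicle and 100% = reference activator; nearly all actives have a fitted effect of over 75% in size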
- conditionParameters: NCI-H358 eGFP-delta133p53alpha fluorescence, 24 h; hits give high values
Results filed as inconclusive are left out.
Report as a plain number; the unit % is understood.

Asked: Record request: activation value, item NCCSSCCN
Given back: 43.3

Asked: Record request: activation value, item CN1CCN(c2nc3cc(C(F)(F)F)ccc3n3cccc23)CC1
Given back: -11.1

Asked: Record request: activation value, item NC[C@@H]1O[C@H](C23CC4CC(CC(C4)C2)C3)Cc2c1ccc(O)c2O
Given back: 44.4

Asked: Record request: activation value, item COc1cccc(-n2nc(C(=O)O)cc2-c2ccc(C3CCCCC3)c(Cl)c2)c1
Given back: 1.43

Asked: Record request: activation value, item C=CC(C)(C)O[C@@H]1O[C@H](CO[C@@H]2OC[C@](O)(CO)[C@H]2O)[C@@H](O)[C@H](O)[C@H]1O
Given back: -18.3

Asked: Record request: activation value, item CCCCCCCCCCC(CO)CCCCCCCC (stereo not given)
Given back: 16.4

====

- protocolSummary: BET inhibitor-based combinations targeting novel dependencies in MECOM-rearranged (r) AML: MV-4-11 cell line (AID 2202233); note: nearly all actives have a fitted effect of over 45% in size
- conditionParameters: MV-4-11 AML viability, CellTiter-Glo luminescence, 48 h; series mostly up to 46 µM
- Protocol: Ecotropic viral insertion site 1 (EVI1) is located on chromosome 3q26.2 as part of the MECOM (MDS and EVI1 complex) locus. […] A collection of 2480 mechanistically annotated dugs (MIPE v5.0) was used to screen four 3q26.2 rearranged AML cell lines and three non-3q26.2 rearranged AML cell lines. […] Cell viability was determined by luminescence based, Cell Titer Glo assay (Promega). […] Luminescence readings were taken using a Viewlux (PerkinElmer) with a 2 s exposure time per plate. […]
Results filed as inconclusive are left out. Active and inactive are the calls of the source. The call rests on the fitted dose curve; in most records, active means well fitted inhibition curve with a large enough effect; inconclusive means small, poorly fitted or top-dose-only effect; inactive means no such curve, though single readings can be large or run the other way.
Can you answer with just one of these options? active, inactive

Reference set (10 entries):
# molecule, discreteLabel
data = [
    ("CCOc1ccccc1N=Nc1c(C)[nH]n(-c2nc(-c3ccccc3)cs2)c1=O", "inactive"),
    ("CC1CCC(C(=O)N(c2cc(C#CC(C)(C)C)sc2C(=O)O)C2CCC(O)CC2)CC1 (stereo not given)", "active"),
    ("Cc1[nH]c2ccc(F)cc2c1-c1nc2c3cccnc3c3ncccc3c2[nH]1", "active"),
    ("O=c1oc2c(O)c(O)cc3c(=O)oc4c(O)c(O)cc1c4c23", "inactive"),
    ("Cc1cc(C(=O)N2CCN(c3cccc(Cl)c3)CC2)n(-c2ccccc2)n1", "active"),
    ("Cn1nnc2c(C(N)=O)ncn2c1=O", "inactive"),
    ("Cc1cc(C)c(/C=C2\\C(=O)Nc3ccccc32)[nH]1", "active"),
    ("Cc1cc(CS(=O)(=O)c2ccccc2)cc(OCc2ccc(CN3CCC[C@@H]3CO)cc2)c1", "active"),
    ("Clc1ccc(C(c2ccc(Cl)cc2)n2cc[n+](CC(OCc3ccc(Cl)cc3Cl)c3ccc(Cl)cc3Cl)c2)cc1 (stereo not given)", "active"),
    ("N[C@@H](Cc1ccc(O)c(O)c1)C(=O)O", "inactive"),
]

Asked: What is the recorded call for this molecule in the test? CC(C)[C@@H](CS(=O)(=O)C(C)C)N1C(=O)[C@@](C)(CC(=O)O)C[C@H](c2cccc(Cl)c2)[C@H]1c1ccc(Cl)cc1
Given back: active

Asked: What is the recorded call for this molecule in the test? O=C(Nc1cccc(Br)c1)c1cccc(S(=O)(=O)N2CCCCCC2)c1
Given back: active

Asked: What is the recorded call for this molecule in the test? O=C(Nc1ccc(-c2ccnc(Nc3ccc(N4CCOCC4)cc3)n2)cc1)C1CCCN1 (stereo not given)
Given back: active

Asked: What is the recorded call for this molecule in the test? Cc1cc2c(C(C)C)c(O)c(O)c(C=O)c2c(O)c1-c1c(C)cc2c(C(C)C)c(O)c(O)c(C=O)c2c1O
Given back: active

Asked: What is the recorded call for this molecule in the test? COC(=O)C1C2CC3c4[nH]c5cc(OC)ccc5c4CCN3CC2CC(OC(=O)c2cc(OC)c(OC)c(OC)c2)C1OC (stereo not given)
Given back: active

All figures here come from PubChem BioAssay (NCATS).
